# studyTarget: Histone-lysine N-methyltransferase EHMT2 (Homo sapiens) (UniProt Q96KQ7)
# Sequence (Q96KQ7 913-1193 limits assumed): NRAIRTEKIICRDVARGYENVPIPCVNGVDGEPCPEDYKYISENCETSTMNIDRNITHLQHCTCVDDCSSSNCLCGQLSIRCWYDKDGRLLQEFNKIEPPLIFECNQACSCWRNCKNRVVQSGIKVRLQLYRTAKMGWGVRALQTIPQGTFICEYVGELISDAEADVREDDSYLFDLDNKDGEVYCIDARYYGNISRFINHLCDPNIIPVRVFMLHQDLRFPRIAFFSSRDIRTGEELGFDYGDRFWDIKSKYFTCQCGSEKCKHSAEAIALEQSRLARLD
# testProtocol: qHTS Assay for Inhibitors of Histone Lysine Methyltransferase G9a; note: nearly all actives have a fitted effect of over 75% in size; note: potency is the fitted concentration of half-maximal effect
# assaySetup: G9a H3K9 monomethylation, AlphaScreen, 2 h; series mostly up to 59 µM
Hit rate of the full screen: of about 350,000 compounds, about 31,000 (8.9%) were called active. Inconclusive results (about 15%) are left out. Only a selection was taken, and actives are over-represented in it overall.
reportedProperty: Potency

molecule="CCOc1cc(C2C(C(=O)c3ccco3)=C(O)C(=O)N2Cc2ccccc2)ccc1O (stereo not given)" reportedproperty=Potency recordedvalue="44.7 µM (active)"
molecule=CC(C)Sc1oc(-c2cccs2)nc1S(=O)(=O)c1ccc(Cl)cc1 reportedproperty=Potency recordedvalue=inactive
molecule=COc1ccc(OC)c2[nH]c(=O)c(CCNC(=O)C(C)(C)C)cc12 reportedproperty=Potency recordedvalue=inactive
molecule=COc1ccc(Cn2ccc3nc(C)c(C(=O)Nc4ccc(C)c(F)c4)cc3c2=O)cc1 reportedproperty=Potency recordedvalue=inactive
molecule="CN(C(=O)CC1C(=O)NCCN1Cc1ccc(F)cc1Cl)C1CCCCC1 (stereo not given)" reportedproperty=Potency recordedvalue=inactive
molecule="Cc1cccc(S(=O)(=O)N2CN(CC3CCCO3)c3nc4ccccc4nc32)c1 (stereo not given)" reportedproperty=Potency recordedvalue="50.1 µM (active)"
molecule=COc1ccc(CNc2ccc3c(c2)CCC3)cc1OC reportedproperty=Potency recordedvalue="39.8 µM (active)"
molecule=COc1ccc(OCC(=O)NCCc2ccc(S(N)(=O)=O)cc2)cc1 reportedproperty=Potency recordedvalue=inactive
molecule=CCc1ccccc1NC(=O)CN(C)C(=O)COc1ccc(C)nc1[N+](=O)[O-] reportedproperty=Potency recordedvalue=inactive
molecule=CCS(=O)(=O)c1cc([N+](=O)[O-])c(Sc2ccccc2N)s1 reportedproperty=Potency recordedvalue="1.12 µM (active)"
molecule="O=S(=O)(NCC1CCCO1)c1ccc2ccccc2c1 (stereo not given)" reportedproperty=Potency recordedvalue=inactive
molecule=C=CCn1c(COc2ccccc2C)nnc1SCC(=O)O reportedproperty=Potency recordedvalue=inactive
molecule="COc1cccc(CN2CCNC(=O)C2CC(=O)N(C)CCc2ccccn2)c1 (stereo not given)" reportedproperty=Potency recordedvalue="44.7 µM (active)"
molecule=Cc1ccc(-n2nnnc2CNC(=O)c2ccccc2C)cc1C reportedproperty=Potency recordedvalue=inactive
molecule=COc1ccc(NC(=S)Nc2ccc(S(N)(=O)=O)cc2)c(C)c1 reportedproperty=Potency recordedvalue=inactive
molecule="CCCOC(=O)C1=C(C)NC2=C(C(=O)C(C(=O)OC)C(C)C2)C1c1ccc(N(C)C)cc1 (stereo not given)" reportedproperty=Potency recordedvalue="44.7 µM (active)"
molecule=CC(C)C(=O)OCC(=O)Nc1ccc2c(c1)CCC2 reportedproperty=Potency recordedvalue=inactive
molecule=COc1ccc(OC)c(-c2csc(NC(=O)COC(=O)C3CC3)n2)c1 reportedproperty=Potency recordedvalue=inactive
molecule=CCCCN(C)S(=O)(=O)c1ccc(C(=O)Nc2sc3c(c2C(N)=O)CC(C)(C)NC3(C)C)cc1 reportedproperty=Potency recordedvalue=inactive
molecule=COc1ccc(OC)c2[nH]c(=O)c(CCNC(=O)C(=O)c3c[nH]c4ccccc34)cc12 reportedproperty=Potency recordedvalue="50.1 µM (active)"
molecule=CCc1nc(C)ccc1OCC(=O)N(CC)CC reportedproperty=Potency recordedvalue="28.2 µM (active)"
molecule=COc1cc(NC(=S)NCc2ccc(S(N)(=O)=O)cc2)cc(OC)c1 reportedproperty=Potency recordedvalue="17.8 µM (active)"
molecule=Cc1ccc(-c2cc(C(=O)Oc3ccccc3Cl)no2)cc1C reportedproperty=Potency recordedvalue=inactive
molecule=Cc1ccc(S(=O)(=O)NCCSc2ccccc2)cc1[N+](=O)[O-] reportedproperty=Potency recordedvalue=inactive
molecule=O=C(Nc1cccc(F)c1)NC1CCCCCCC1 reportedproperty=Potency recordedvalue=inactive
molecule=Cc1nc(-c2ccccc2)sc1-c1nc(-c2ccccc2)ncc1S(=O)(=O)c1ccccc1 reportedproperty=Potency recordedvalue=inactive
molecule=COc1ccc(C(=O)COC(=O)CCCC(=O)Nc2cc(C(F)(F)F)ccc2Cl)cc1 reportedproperty=Potency recordedvalue=inactive
molecule=CNC(=O)COc1ccc(S(=O)(=O)Nc2ccccc2)cc1 reportedproperty=Potency recordedvalue="50.1 µM (active)"
molecule=COc1cc(CNCCN(C)C)ccc1OCc1c(F)cccc1Cl reportedproperty=Potency recordedvalue=inactive
molecule=CCOC(=O)c1cc(Sc2ccccc2N)cc(C(=O)OCC)n1 reportedproperty=Potency recordedvalue=inactive
molecule=COC(=O)C1=C(NC(=O)C(C)(C)C)CCS1 reportedproperty=Potency recordedvalue="1.41 µM (active)"
molecule="CCC(Cc1ccccc1)NC(=O)C1CCCCC1 (stereo not given)" reportedproperty=Potency recordedvalue=inactive
molecule="COc1ccccc1NC(=O)C1CCCN1S(=O)(=O)c1ccc(Cl)cc1 (stereo not given)" reportedproperty=Potency recordedvalue=inactive
molecule=CCN1C(=NCCc2cccnc2)N[C@@H](c2ccccc2)C(C(=O)OC)=C1C reportedproperty=Potency recordedvalue="44.7 µM (active)"
molecule=Cc1ccc(-n2ncc3c(N4CCC(C(N)=O)CC4)ncnc32)cc1 reportedproperty=Potency recordedvalue=inactive
molecule=CN(CCc1ccccn1)C(=O)c1ccc(OC2CCN(CCc3ccccc3)CC2)cc1 reportedproperty=Potency recordedvalue=inactive
molecule=COc1ccc(CNCCCO)cc1OC reportedproperty=Potency recordedvalue=inactive
molecule="Cc1cnc(CN(C)C(=O)CC2C(=O)NCCN2Cc2cccc(F)c2F)[nH]1 (stereo not given)" reportedproperty=Potency recordedvalue=inactive
molecule=Cc1cccc(-n2cnc(C(=O)NNC(=S)Nc3ccccc3)c2)n1 reportedproperty=Potency recordedvalue="28.2 µM (active)"
molecule="CC(Sc1nn(-c2ccc(Cl)cc2)c(=S)s1)C(=O)NCC1CCCO1 (stereo not given)" reportedproperty=Potency recordedvalue=inactive
molecule=COc1cccc(CNC(=O)Cc2csc3nc(-c4ccccc4)cn23)c1 reportedproperty=Potency recordedvalue=inactive
molecule=O=C(Cn1nnc2ccccc2c1=O)NCc1ccc(Cl)cc1 reportedproperty=Potency recordedvalue=inactive
molecule="Cc1nc(CN(C)C(=O)CC2C(=O)NCCN2Cc2ccc(F)cc2)cs1 (stereo not given)" reportedproperty=Potency recordedvalue="44.7 µM (active)"
molecule=COc1ccc(-c2c(C)c3ccc(O)c(CN4CCCC4)c3oc2=O)cc1OC reportedproperty=Potency recordedvalue=inactive
molecule=C=CCn1c(-c2ccc3[nH]c(C)c(C)c3c2)n[nH]c1=S reportedproperty=Potency recordedvalue="1 µM (active)"
